Numbers sourced from the supplement of paper PMC11061612.

- Test system: MDA-MB-231 (Breast Carcinoma);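 further: after 72 h of two-drug dosing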
- protocol-details: Bliss excess, mean over the matrix (fraction); higher = more synergy
Decide using Bliss excess: a value greater than or equal to -0.01 is YES, a smaller one is NO.

{"compound": "C[C@@H]1COCCN1c1cc(C2([S@](C)(=N)=O)CC2)nc(-c2ccnc3[nH]ccc23)n1 [AZD6738] + Nc1ccn([C@@H]2O[C@H](CO)[C@@H](O)C2(F)F)c(=O)n1 [Gemcitabine] (first compound max 10 µM, 7x7, partner max 0.3 µM)", "class-label": "YES"}
{"compound": "Cc1nc(Nc2ncc(C(=O)Nc3c(C)cccc3Cl)s2)cc(N2CCN(CCO)CC2)n1 [Dasatinib] + CC(=O)Nc1cccc(-n2c(=O)n(C3CC3)c(=O)c3c(Nc4ccc(I)cc4F)n(C)c(=O)c(C)c32)c1 [Trametinib] (first compound max 2 µM, 7x7, partner max 1 µM)", "class-label": "NO"}
{"compound": "CN(CCO)CC[C@H](CSc1ccccc1)Nc1ccc(S(=O)(=O)NC(=O)c2ccc(N3CCC([C@@H](O)c4ccccc4-c4ccc(Cl)cc4)CC3)cc2)cc1S(=O)(=O)C(F)(F)F [AZD4320] + Cn1cnc2c(F)c(Nc3ccc(Br)cc3Cl)c(C(=O)NOCCO)cc21 [Selumetinib] (first compound max 1 µM, 7x7, partner max 3 µM)", "class-label": "YES"}
{"compound": "CC1(C)CCC(CN2CCN(c3ccc(C(=O)NS(=O)(=O)c4ccc(NCC5CCOCC5)c([N+](=O)[O-])c4)c(Oc4cnc5[nH]ccc5c4)c3)CC2)=C(c2ccc(Cl)cc2)C1 [Venetoclax] + C[C@@H]1COCCN1C2=NC(=NC(=C2)C3(CC3)[S@](=N)(=O)C)C4=C5C=CNC5=NC=C4 [AZD6738] (first compound max 1 µM, 7x7, partner max 10 µM)", "class-label": "NO"}
{"compound": "Cn1cnc2c(F)c(Nc3ccc(Br)cc3Cl)c(C(=O)NOCCO)cc21 [Selumetinib] + CC(C)n1c(=O)n(C)c2cnc3cc(F)c(-c4ccc(OCCCN5CCCCC5)nc4)cc3c21 [AZD1390] (first compound max 10 µM, 7x7, partner max 0.3 µM)", "class-label": "YES"}
{"compound": "COc1cccc(OCCCN)c1-c1cc(Nc2cnc(C#N)cn2)n[nH]1 [Prexasertib] + O=C(c1cc(Cc2n[nH]c(=O)c3ccccc23)ccc1F)N1CCN(C(=O)C2CC2)CC1 [Olaparib] (first compound max 1 µM, 7x7, partner max 10 µM)", "class-label": "NO"}

# input for lookup
Lookup: Could you please find out whether COc1cccc2c1C(=O)c1c(O)c3c(c(O)c1C2=O)C[C@@](O)(C(=O)CO)C[C@@H]3O[C@H]1C[C@H](N)[C@H](O)[C@H](C)O1 [Doxorubicin] + Cc1cc2ncnn2cc1Nc1ncc2c(n1)n(C1CCOCC1)c(=O)n2C [AZD7648] (first compound max 1 µM, 7x7, partner max 10 µM) has Bliss excess that meets -0.01 or exceeds it?
Found: NO
